# Tested on: Trypanosoma cruzi
# Test name: Antitrypanosomal activity against Trypanosoma cruzi
# Format: functional, organism-based
Recorded IC50 values for a group of compounds are listed next.

{"columns": ["Compound", "Target entity", "IC50"],
 "data": [
  ["O=C1CCC2(Oc3cccc4cccc(c34)O2)c2c(O)ccc(O)c21", "Trypanosoma cruzi", "> 10 µM"],
  ["Oc1cccc2c1[C@@H](O)CCC21Oc2cccc3cccc(c23)O1", "Trypanosoma cruzi", "26.5 µM"]
]}

Name the recorded IC50 for O=C1C=C[C@]23Oc4ccc(O)c5c4[C@](CCC5=O)(Oc4cccc1c42)O3 . > 10 µM

Continue with CC1CS(=O)(=O)CCN1/N=C/c1ccc([N+](=O)[O-])o1 (stereo unspecified) 3 µg/mL

Continue with O=C1C=CC(=O)C2=C1[C@@H](O)CCC21Oc2cccc3cccc(c23)O1 > 10 µM

Continue with O=C1CCC2(Oc3cccc4cccc(c34)O2)c2cccc(O)c21 18.5 µM

* * *

# Test system: Leishmania donovani
# Test name: Antileishmanial activity against Leishmania donovani LD-1S/MHOM/SD/00-strain 1S amastigotes
# Assay type: functional, organism-based
# Measurement setup: Leishmania donovani, 1S; read-out: IC50
Endpoint: IC50 (µM)
Write the answer as a number in µM, unit excluded.

{"columns": ["Smiles representation", "IC50 [µM]"],
 "data": [
  ["O=C1CCC2(Oc3cccc4cccc(c34)O2)c2c(O)ccc(O)c21", 1.34]
]}

Okay, next one:
Name the recorded IC50 for Oc1cccc2c1[C@@H](O)CCC21Oc2cccc3cccc(c23)O1 . 8.4

* * *

# Test name: Therapeutic index, ratio of IC50 for african green monkey Vero cells to IC50 for Leishmania donovani LD-1S/MHOM/SD/00-strain 1S amastigotes
# Assay type: cell-based
# Measurement setup: read-out: Ratio IC50
Recorded selectivity ratio values for a group of compounds are listed next.
// no unit, no text: just the number

{"columns": ["Smiles representation", "selectivity ratio"],
 "data": [
  ["O=C1C=CC(=O)C2=C1[C@@H](O)CCC21Oc2cccc3cccc(c23)O1", 245]
]}

Name the recorded selectivity ratio for O=C1C=C[C@]23Oc4ccc(O)c5c4[C@](CCC5=O)(Oc4cccc1c42)O3 . 75

Continue with Oc1cccc2c1[C@@H](O)CCC21Oc2cccc3cccc(c23)O1 18

Continue with O=C1CCC2(Oc3cccc4cccc(c34)O2)c2c(O)ccc(O)c21 130

Continue with O=C1CCC2(Oc3cccc4cccc(c34)O2)c2cccc(O)c21 41

* * *

# Test system: Leishmania donovani
# Test name: Antileishmanial activity against Leishmania donovani LD-1S/MHOM/SD/00-strain 1S amastigotes
# Assay type: functional, organism-based
# Measurement setup: Leishmania donovani, 1S; read-out: IC50
Endpoint: IC50 (µM)
Write the answer as a number in µM, unit excluded.

{"columns": ["Smiles representation", "IC50, µM"],
 "data": [
  ["O=C1C=CC(=O)C2=C1[C@@H](O)CCC21Oc2cccc3cccc(c23)O1", 0.62],
  ["O=C1C=C[C@]23Oc4ccc(O)c5c4[C@](CCC5=O)(Oc4cccc1c42)O3", 0.12]
]}

Okay, next one:
Name the recorded IC50 for O=C1CCC2(Oc3cccc4cccc(c34)O2)c2cccc(O)c21 . 3.93
